Listing of recorded IC50 by entry.
targetEntity: Epidermal growth factor receptor (Homo sapiens)
Sequence (P00533 whole entry): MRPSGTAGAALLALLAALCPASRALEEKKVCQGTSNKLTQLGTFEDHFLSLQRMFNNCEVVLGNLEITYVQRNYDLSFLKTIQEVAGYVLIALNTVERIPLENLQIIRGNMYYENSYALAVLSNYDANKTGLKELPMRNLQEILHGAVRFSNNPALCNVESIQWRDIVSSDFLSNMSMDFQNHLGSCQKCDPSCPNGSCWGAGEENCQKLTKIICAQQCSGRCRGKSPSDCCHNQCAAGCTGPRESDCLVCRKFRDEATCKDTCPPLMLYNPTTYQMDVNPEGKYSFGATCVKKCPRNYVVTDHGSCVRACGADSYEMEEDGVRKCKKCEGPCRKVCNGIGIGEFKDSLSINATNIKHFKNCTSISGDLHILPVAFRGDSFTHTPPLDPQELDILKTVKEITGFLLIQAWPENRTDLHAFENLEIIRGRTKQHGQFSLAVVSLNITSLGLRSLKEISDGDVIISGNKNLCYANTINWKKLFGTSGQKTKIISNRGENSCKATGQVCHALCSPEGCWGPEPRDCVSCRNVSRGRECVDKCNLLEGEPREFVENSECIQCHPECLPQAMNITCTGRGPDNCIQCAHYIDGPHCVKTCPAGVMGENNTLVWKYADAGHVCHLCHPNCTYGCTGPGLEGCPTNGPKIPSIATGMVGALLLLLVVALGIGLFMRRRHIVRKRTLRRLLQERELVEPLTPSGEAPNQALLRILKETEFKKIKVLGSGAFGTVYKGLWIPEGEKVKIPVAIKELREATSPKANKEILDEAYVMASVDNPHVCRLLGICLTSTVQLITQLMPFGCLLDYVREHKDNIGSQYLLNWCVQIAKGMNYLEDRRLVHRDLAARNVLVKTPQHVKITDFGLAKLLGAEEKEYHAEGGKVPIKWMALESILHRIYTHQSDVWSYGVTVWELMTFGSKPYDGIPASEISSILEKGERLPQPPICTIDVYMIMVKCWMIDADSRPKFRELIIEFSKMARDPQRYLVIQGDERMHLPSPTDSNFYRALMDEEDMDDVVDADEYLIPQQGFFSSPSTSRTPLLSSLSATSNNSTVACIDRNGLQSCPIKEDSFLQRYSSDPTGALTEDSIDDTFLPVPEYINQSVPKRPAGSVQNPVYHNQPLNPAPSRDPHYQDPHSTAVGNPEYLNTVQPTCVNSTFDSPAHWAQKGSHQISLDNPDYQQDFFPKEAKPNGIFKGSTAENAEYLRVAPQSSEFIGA
measurementDescription: Inhibition of wild type EGFR (unknown origin) using Tyr 4 peptide as substrate after 1.5 hrs by FRET-based Z'-LYTE assay
conditionParameters: read-out: IC50
measurementLabel: IC50 (nM)

> print(dat)
                                  molsmiles  measurementlabel  unitabbreviation  recordedvalue
1  C=CC(=O)Nc1cccc(-n2c(=O)cnc3cnc(Nc4ccc(C(N)=O)cc4)nc32)c1              IC50                nM           12.1
2  C=CC(=O)Nc1cccc(-n2c(=O)cnc3cnc(Nc4ccc(NC(C)=O)cc4)nc32)c1              IC50                nM           12.5
3  C=CC(=O)Nc1cccc(-n2c(=O)cnc3cnc(Nc4ccc(N5CCN(C)CC5)cc4OC)nc32)c1              IC50                nM           3.82
4  C=CC(=O)Nc1cccc(-n2c(=O)cnc3cnc(Nc4ccc(N(CC)CC)cc4)nc32)c1              IC50                nM           14.5
5  C=CC(=O)Nc1cccc(-n2c(=O)cnc3cnc(Nc4ccc(OC)cc4)nc32)c1              IC50                nM           13.8
6  C=CC(=O)Nc1cccc(-n2c(=O)cnc3cnc(Nc4ccc(N5CCOCC5)cc4)nc32)c1              IC50                nM           6.95
7  COc1ccc(-n2c(=O)cnc3cnc(Nc4cccc(N)c4)nc32)cc1              IC50                nM          18300
8  C=CC(=O)Nc1ccc(-n2c(=O)cnc3cnc(Nc4ccc(Cl)cc4)nc32)cc1              IC50                nM            374
